target.desc: UniProt P36897
Sequence (P36897 162-503): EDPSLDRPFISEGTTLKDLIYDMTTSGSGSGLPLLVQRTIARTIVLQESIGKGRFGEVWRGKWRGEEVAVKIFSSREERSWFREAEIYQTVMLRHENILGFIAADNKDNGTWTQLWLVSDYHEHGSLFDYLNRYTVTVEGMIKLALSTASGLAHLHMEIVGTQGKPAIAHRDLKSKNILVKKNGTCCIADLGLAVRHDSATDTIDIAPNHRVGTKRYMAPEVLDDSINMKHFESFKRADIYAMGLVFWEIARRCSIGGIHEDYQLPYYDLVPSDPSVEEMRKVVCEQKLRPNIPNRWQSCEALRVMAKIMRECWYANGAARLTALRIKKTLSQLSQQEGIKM
test.name: ALK5 Enzyme Assay 2 (fluorescence polarisation probe displacement)
Format: binding
Design: 6His tagged human ALK5 (residues162-503) was grown and purified from insect cells; 6His; made in house; host or cells: insect cells
measurement.setup: read-out: EAA2: activity (μM) using Enzyme Assay 2
Protocol: The ability of a compound to bind and inhibit ALK5 can be measured by its capacity to displace a probe molecule from recombinant ALK5 in an in vitro assay. Provided the probe molecule is derivatised with a fluorescent probe or is fluorescent itself, the binding affinity can be measured using Fluorescence Polarisation (FP). […] Assay measurements were performed in 50 mM HEPES pH7.4, 10 mM MgCl2, 1 mM DTT, 0.01% CHAPS in a final assay volume of 12 μl. […]
recorded.metric: IC50 (µM)
Just the number please, in µM, no unit attached.

For record Cc1cc(Oc2ccnc(Nc3cccc(C(=O)NCc4ccccn4)c3)c2)c(-c2ccccn2)nc1C the listed IC50 is 0.00734

get_value(item= Cc1ccc(Oc2ccnc(Nc3ccccn3)c2)c(C)n1 , readout=IC50) returns 0.0238

The recorded IC50 for entry Cc1cc(Oc2ccnc(Nc3ccc(CO)cc3)c2)c(-c2ccccn2)nc1C equals 0.0167

// IC50 lookup, molecule = Cc1cc(Oc2ccnc(Nc3ccc(OCCCNC(=O)OC(C)(C)C)cc3)c2)c(-c2ccccn2)nc1C , result: 0.00903
